testSystem: FUS-SNAP condensates (Homo sapiens)
runDescription: Fluorescence imaging of dye partitioning in FUS-SNAP condensates (I-in, I-out)
Assay type: physicochemical
settings: I-in:I-out; Day 2; 10 μM dye
Counter-ions that a name gives are not always drawn.
readout: Ratio of intensity inside:outside FUS-SNAP Condensates Day 2
When you answer, write just the number.

compound | observedValue
N#CC1=c2cc3c4c(c2Oc2c1cc1c5c2CCCN5CCC1)CCC[N+]=4CCC3 | 11.0
O=C([O-])c1ccccc1C1=c2cc3c4c(c2Oc2c1cc1c5c2CCCN5CCC1)CCC[N+]=4CCC3 [Dye 17, Rhodamine 101 inner salt] | 5.9

Short answer please: Ratio of intensity inside:outside FUS-SNAP Condensates Day 2, FUS-SNAP condensates (Homo sapiens), entry CC(=O)Oc1ccc2c(c1)Oc1cc(OC(C)=O)ccc1C21OC(=O)c2ccccc21 [Dye 9, Fluorescein diacetate]
1.5

Another compound to look at: CC(=O)N[C@H]1[C@H](Oc2ccc3c(c2)Oc2cc(O)ccc2C32OC(=O)c3ccccc32)O[C@H](CO)[C@H](O)[C@@H]1O (stereo partly drawn)
1.4

Also CCN(CC)c1ccc2c(-c3ccccc3C(=O)O)c3ccc(=[N+](CC)CC)cc-3oc2c1 , if possible.
3.8

What about O=C1OC2(c3ccc(O)cc3Oc3cc(O)ccc32)c2ccccc21 ?
1.4

Same question for N=C(N)c1ccc(-c2cc3ccc(C(=N)N)cc3[nH]2)cc1 please.
3.3

What do we get for COC(=O)c1ccccc1-c1c2ccc(=N)cc-2oc2cc(N)ccc12.Cl ?
1.4

Input O=C(O)c1cc2cc3c4c(c2oc1=O)CCCN4CCC3
2.8

Query O=C(CCCC[C@@H]1SCC2NC(=O)NC21)NCCNC(=O)c1ccc(-c2c3ccc(=O)cc-3oc3ccc(O)cc23)c(C(=O)O)c1 (stereo partly drawn) next
2.1

Next record, please: O=c1cc(C(F)(F)F)c2ccc(O)cc2o1 [Dye 2, 7-Hydroxy-4-(trifluoromethyl)-coumarin]
1.2

And the next one, CC(=O)c1cc2cc3c4c(c2oc1=O)CCCN4CCC3 ?
3.0

---

Readings of Intensity Inside Dye-No Dye for the listed molecules
testSystem: FUS-SNAP condensates (Homo sapiens, UniProt P35637)
Sequence (P35637 1-526): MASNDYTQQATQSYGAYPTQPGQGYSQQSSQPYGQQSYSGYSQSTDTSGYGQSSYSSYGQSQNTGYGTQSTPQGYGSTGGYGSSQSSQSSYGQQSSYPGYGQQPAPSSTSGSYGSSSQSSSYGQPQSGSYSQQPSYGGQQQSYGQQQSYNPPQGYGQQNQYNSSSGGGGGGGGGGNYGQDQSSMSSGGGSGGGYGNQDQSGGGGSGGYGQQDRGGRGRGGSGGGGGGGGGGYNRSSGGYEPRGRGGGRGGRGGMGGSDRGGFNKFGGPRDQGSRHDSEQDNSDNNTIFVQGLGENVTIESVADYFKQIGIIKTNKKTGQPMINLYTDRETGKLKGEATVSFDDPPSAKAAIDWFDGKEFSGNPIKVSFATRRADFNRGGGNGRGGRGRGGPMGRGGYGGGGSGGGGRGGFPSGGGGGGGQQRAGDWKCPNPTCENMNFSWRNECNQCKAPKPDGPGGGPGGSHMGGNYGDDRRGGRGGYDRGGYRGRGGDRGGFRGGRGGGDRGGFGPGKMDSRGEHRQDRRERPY
runDescription: Fluorescence imaging of dye partitioning in FUS-SNAP condensates (I-in, I-out)
Type: physicochemical
settings: inside FUS-SNAP condensate; background corrected; one day of experiments
Form field (numeric): enter value without unit.

These solved cases illustrate the format of a correct answer.
molecule | Intensity Inside Dye-No Dye
O=c1cc(C(F)(F)F)c2ccc(O)cc2o1 [Dye 2, 7-Hydroxy-4-(trifluoromethyl)-coumarin] | 160.9
O=C(CCCC[C@@H]1SCC2NC(=O)NC21)NCCNC(=O)c1ccc(-c2c3ccc(=O)cc-3oc3ccc(O)cc23)c(C(=O)O)c1 (stereo partly drawn) | 4534.2
O=C1OC2(c3ccc(O[C@@H]4O[C@H](CO)[C@H](O)[C@H](O)[C@H]4O)cc3Oc3cc(O[C@@H]4O[C@H](CO)[C@H](O)[C@H](O)[C@H]4O)ccc32)c2ccccc21 [Dye 12, Fluorescein di(β-D-galacto-pyranoside)] | −19.5
CC(=O)N[C@H]1[C@H](Oc2ccc3c(c2)Oc2cc(O)ccc2C32OC(=O)c3ccccc32)O[C@H](CO)[C@H](O)[C@@H]1O (stereo partly drawn) | 1399.1
N#CC1=c2cc3c4c(c2Oc2c1cc1c5c2CCCN5CCC1)CCC[N+]=4CCC3 | 14919.5

Proceeding to the next molecule to report its Intensity Inside Dye-No Dye.
Looking for the measured Intensity Inside Dye-No Dye of CC(=O)Oc1ccc2c(c1)Oc1cc(OC(C)=O)ccc1C21OC(=O)c2ccccc21 [Dye 9, Fluorescein diacetate] , can you help?
1821.5

Sourced from patent US12174198B2
